test system: A549; assay: Antiproliferative activity against human A549 cells after 72 hrs by MTT assay; format: functional, cell-based; settings: A549, 72 h
property_name: pIC50
// pIC50 here means minus log10 of the molar concentration (mol/L)

Ask: Return pIC50 for the following compound: COc1cc2c(Nc3ccc(C#N)cc3)ncnc2cc1OCCCN1CCN(c2ccncc2)CC1
Result: 4.59

Ask: Return pIC50 for the following compound: COc1cc2c(Nc3cccc(C#N)c3)ncnc2cc1OCCCN1CCN(C)CC1
Result: 4.56

====

test system: A549; experiment: Antiproliferative activity against human A549 cells after 72 hrs by MTT assay; format: functional, cell-based; settings: A549, 72 h
Give pIC50 for every item shown.
// pIC50 here means minus log10 of the molar concentration (mol/L)

Ask: Quote pIC50 with test system A549 for COc1cc2c(Nc3ccccc3C#N)ncnc2cc1OCCCN1CCC(C)CC1
Result: 4.64

Ask: Quote pIC50 with test system A549 for COc1cc2c(Nc3ccccc3C#N)ncnc2cc1OCCCN1CCN(C)CC1
Result: 4.63

Ask: Quote pIC50 with test system A549 for COc1cc2c(Nc3ccc(C#N)cc3)ncnc2cc1OCCCN1CCC(O)CC1
Result: 4.52

Ask: Quote pIC50 with test system A549 for COc1cc2c(Nc3cccc(C#N)c3)ncnc2cc1OCCCN1CCOCC1
Result: 4.18

Ask: Quote pIC50 with test system A549 for COc1cc2c(Nc3ccc(C#N)cc3)ncnc2cc1OCCCN(C)C
Result: 4.22
